Cited source: patent US10065941B2

tested system: human P2X3 receptor (Homo sapiens (Human))
Sequence (P56373 whole entry): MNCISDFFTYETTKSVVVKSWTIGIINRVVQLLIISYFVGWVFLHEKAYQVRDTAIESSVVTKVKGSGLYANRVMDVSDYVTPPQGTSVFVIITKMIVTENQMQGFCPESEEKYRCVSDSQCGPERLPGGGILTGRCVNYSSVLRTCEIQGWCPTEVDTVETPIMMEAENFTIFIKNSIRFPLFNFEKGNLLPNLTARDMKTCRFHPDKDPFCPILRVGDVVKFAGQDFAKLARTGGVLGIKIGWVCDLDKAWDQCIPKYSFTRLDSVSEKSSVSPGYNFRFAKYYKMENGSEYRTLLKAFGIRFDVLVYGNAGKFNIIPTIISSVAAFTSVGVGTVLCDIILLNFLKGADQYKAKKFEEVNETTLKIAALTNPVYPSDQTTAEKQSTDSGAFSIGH
test details: Evaluation of human P2X3 receptor inhibitory activity (Test Example 1)
condition details: C6BU-1 cell transfected with human P2X3 receptor gene, FLIPR 384
Attribute: IC50
Kindly answer with a numeric value in nM, unit omitted.

{"compound": "COC(=O)[C@@H](C)Cn1c(=O)[nH]/c(=N\\c2ccc(Oc3ccccn3)cc2)n(Cc2ccc(CF)cc2)c1=O [Compound I-206]", "units": "nM", "IC50": 10}
{"compound": "COC(=O)[C@@H](C)Cn1c(=O)[nH]/c(=N\\c2ccc(Oc3cccc(F)n3)cc2)n(Cc2ccc(CF)cc2)c1=O [Compound I-209]", "units": "nM", "IC50": 8}
{"compound": "C[C@@H](Cn1c(=O)[nH]/c(=N\\c2ccc(Oc3cc(F)nc(F)c3)cc2)n(Cc2ccc(Cl)cc2)c1=O)C(=O)O [Compound R-057]", "units": "nM", "IC50": 6}
{"compound": "CCOC(=O)c1cnc(Oc2ccc(/N=c3\\[nH]c(=O)n(CC)c(=O)n3Cc3ccc(Cl)cc3)cc2)c(Cl)c1 [Compound R-015]", "units": "nM", "IC50": 104}
{"compound": "COC(=O)C(C)(C)Cn1c(=O)[nH]/c(=N\\c2ccc(Oc3ccc(C)cn3)cc2)n(Cc2ccc(Cl)cc2)c1=O [Compound I-055]", "units": "nM", "IC50": 9}
{"compound": "COC(=O)C[C@@H](C)n1c(=O)[nH]/c(=N\\c2ccc(Oc3ncccc3F)cc2)n(Cc2ccc(Cl)cc2)c1=O [Compound I-161]", "units": "nM", "IC50": 10}
{"compound": "CC(C)(Cn1c(=O)[nH]/c(=N\\c2ccc(Oc3cc(O)nc(F)c3)cc2)n(Cc2ccc(Cl)cc2)c1=O)C(=O)O [Compound R-126]", "units": "nM", "IC50": 10}
{"compound": "CC(C)(Cn1c(=O)[nH]/c(=N\\c2ccc(Oc3cc(C(F)(F)F)ccn3)cc2)n(Cc2ccc(Cl)cc2)c1=O)C(=O)O [Compound I-092]", "units": "nM", "IC50": 68}
{"compound": "C[C@@H](Cn1c(=O)[nH]/c(=N\\c2ccc(Oc3ccc(CF)nc3)cc2)n(Cc2ccc(Cl)cc2)c1=O)C(=O)O [Compound I-233]", "units": "nM", "IC50": 6}
{"compound": "NC(=O)NC(=O)Cn1c(=O)[nH]/c(=N\\c2ccc(Oc3ccccn3)cc2)n(Cc2ccc(Cl)cc2)c1=O [Compound R-256]", "units": "nM", "IC50": 2}

Q. Would you kindly share the measured IC50 for COC(=O)[C@H](C)[C@H](C)n1c(=O)[nH]/c(=N\c2ccc(Oc3ccc(OC(F)F)cn3)cc2)n(Cc2ccc(C)cc2)c1=O [Compound I-137] ?
A. 14

Q. What would you report for C[C@@H](Cn1c(=O)[nH]/c(=N\c2ccc(Oc3ccc(C(F)(F)F)nn3)cc2)n(Cc2ccc(Cl)cc2)c1=O)C(=O)O [Compound R-030] ?
A. 8

Q. One more compound: CC(C)(Cn1c(=O)[nH]/c(=N\c2ccc(Oc3cnc(Cl)cn3)cc2)n(Cc2ccc(Cl)cc2)c1=O)C(=O)O [Compound R-027]
A. 6
